molecular target: HCV NS3 protease genotype 3a (3A-1) (Hepatitis C virus genotype 3a); experiment: HCV NS3 protease time-resolved fluorescence (TRF) assay, genotype 3a; format: biochemical; details: Ki 3a
Where a name gives a salt, the structure may show the parent alone.
Can you tell me pKi for the items I'm about to list?
One number for each entry, as −log10 of the molar value.

Here are 8 compounds together with their reported answers.
compound | pKi
C=C[C@@H]1C[C@]1(NC(=O)[C@@H]1C[C@@H]2CN1C(=O)[C@H](C(C)(C)C)NC(=O)O[C@@H]1C[C@H]1CCCCCc1c(nc3ccccc3c1OC1CC3CCC(C1)N3)O2)C(=O)NS(=O)(=O)C1(C)CC1 (single isomer, unassigned) [Example 279, trifluoroacetate] | 8.59
C=C[C@@H]1CC1(NC(=O)[C@@H]1C[C@@H]2CN1C(=O)[C@H](C1CCCCC1)NC(=O)O[C@@H]1C[C@H]1CCCCCc1c(nc3ccccc3c1OC1CCNCC1F)O2)C(=O)NS(=O)(=O)C1(C)CC1 (stereo in doubt) | 8.89
C=C[C@@H]1C[C@]1(NC(=O)[C@@H]1C[C@@H]2CN1C(=O)[C@H](C1CCCCC1)NC(=O)O[C@@H]1C[C@H]1CCCCCc1c(nc3c(OC)cccc3c1OCC1CN(C(=O)OC(C)(C)C)C1)O2)C(=O)NS(=O)(=O)C1(C)CC1 | 7.26
C=C[C@@H]1C[C@]1(NC(=O)[C@@H]1C[C@@H]2CN1C(=O)[C@H](C1CCCC1)NC(=O)O[C@@H]1CCC[C@H]1CC/C=C/Cc1c(nc3ccccc3c1OCCCN1CCCCC1)O2)C(=O)NS(=O)(=O)C1(C)CC1 | 9.24
C=C[C@@H]1C[C@]1(NC(=O)[C@@H]1C[C@@H]2CN1C(=O)[C@H](C1CCCCC1)NC(=O)O[C@@H]1C[C@H]1CCCCCc1c(nc3ccccc3c1OC1CCN(CC(F)(F)F)CC1)O2)C(=O)NS(=O)(=O)C1(C)CC1 [Example 236, formate] | 6.96
C=C[C@@H]1CC1(NC(=O)[C@@H]1C[C@@H]2CN1C(=O)[C@H](C(C)(C)C)NC(=O)O[C@@H]1C[C@H]1CCCCCc1c(nc3ccccc3c1CN1CCOCC1)O2)C(=O)NS(=O)(=O)C1(C)CC1 (stereo partly shown) | 7.40
C=C[C@@H]1C[C@]1(NC(=O)[C@@H]1C[C@@H]2CN1C(=O)[C@H](C(C)(C)C)NC(=O)O[C@@H]1C[C@H]1CCCCCc1c(nc3ccccc3c1OCCCN(C)Cc1nc3cc(C)ccc3[nH]1)O2)C(=O)NS(=O)(=O)C1(C)CC1 | 8.82
C=C[C@@H]1C[C@]1(NC(=O)[C@@H]1C[C@@H]2CN1C(=O)[C@H](C(C)(C)C)NC(=O)O[C@@H]1CCC[C@H]1CCCCCc1c(nc3ccccc3c1OCCN(C)C)O2)C(=O)NS(=O)(=O)C1(COC)CC1 | 8.14

State the recorded pKi for every item in the following list.
1. C=C[C@@H]1C[C@]1(NC(=O)[C@@H]1C[C@@H]2CN1C(=O)[C@H](C(C)(C)C)NC(=O)O[C@@H]1C[C@H]1CCCCCc1c(nc3ccccc3c1OCCc1ccncc1)O2)C(=O)NS(=O)(=O)C1(C)CC1
2. C=C[C@@H]1C[C@]1(NC(=O)[C@@H]1C[C@@H]2CN1C(=O)[C@H](C(C)(C)C)NC(=O)O[C@@H]1C[C@H]1CCCCCc1c(nc3ccccc3c1OCCCNC1CCOCC1)O2)C(=O)NS(=O)(=O)C1(C)CC1
3. C=C[C@@H]1C[C@]1(NC(=O)[C@@H]1C[C@@H]2CN1C(=O)[C@H](C(C)(C)C)NC(=O)O[C@@H]1C[C@H]1CCCCCc1c(nc3ccccc3c1OCCCN(C)Cc1ccn[nH]1)O2)C(=O)NS(=O)(=O)C1(C)CC1
4. CC[C@@H]1C[C@]1(NC(=O)[C@@H]1C[C@@H]2CN1C(=O)[C@H](C1CCCC1)NC(=O)O[C@@H]1CCC[C@H]1CC/C=C/Cc1c(nc3ccccc3c1OC)O2)C(=O)NS(=O)(=O)C1CC1
5. C=C[C@@H]1CC1(NC(=O)[C@@H]1C[C@@H]2CN1C(=O)[C@H](C(C)(C)C)NC(=O)O[C@@H]1C[C@H]1CCCCCc1c(nc3ccccc3c1OC1C3COCC1CN(CCOC)C3)O2)C(=O)NS(=O)(=O)C1(C)CC1 (stereo partly shown)
6. C=C[C@@H]1C[C@]1(NC(=O)[C@@H]1C[C@@H]2CN1C(=O)[C@H](C(C)(C)C)NC(=O)O[C@@H]1C[C@H]1CCCCCc1c(nc3ccccc3c1OC1CCN(CC3CC3)CC1)O2)C(=O)NS(=O)(=O)C1(C)CC1

8.72
9.11
9.02
7.77
8.41
9.42

State the recorded pKi for every item in the following list.
1. C=C[C@@H]1C[C@]1(NC(=O)[C@@H]1C[C@@H]2CN1C(=O)[C@H](C(C)(C)C)NC(=O)O[C@@H]1C[C@H]1CCCCCc1c(nc3ccccc3c1OC1CC3CCC(C1)N3CCOC)O2)C(=O)NS(=O)(=O)C1(C)CC1 (single isomer, unassigned) [Example 280]
2. CC1(S(=O)(=O)NC(=O)[C@@]23C[C@H]2/C=C\CCCCC[C@@H]2NC(=O)O[C@@H]4C[C@H]4CCC/C=C/c4c(nc5ccccc5c4OCCCN4CCCCC4)O[C@@H]4C[C@@H](C(=O)N3)N(C4)C2=O)CC1

[8.33, 8.70]

* * *

target: HCV genotype 1b (BK) NS3 modified enzyme with a R155K mutation (Hepatitis C virus genotype 1b, UniProt P26663, R1181K); construct: HCV genotype 1b (BK) NS3 modified enzyme; test: HCV NS3 protease time-resolved fluorescence (TRF) assay, genotype 1b R155K; assay type: biochemical; details: Ki 1b R155K, genotype 1b (BK) NS3 R155K; single value
value-type: pKi
Answers are plain numbers, as −log10 of the molar value.

Here are 4 compounds together with their reported answers.
compound | pKi
C=C[C@@H]1C[C@]1(NC(=O)[C@@H]1C[C@@H]2CN1C(=O)[C@H](C(C)(C)C)NC(=O)O[C@@H]1CCC[C@H]1CCCCCc1c(nc3ccccc3c1OCCN1CCOCC1)O2)C(=O)NS(=O)(=O)N1CCC1 [Example 107] | 9.13
C=C[C@@H]1C[C@]1(NC(=O)[C@@H]1C[C@@H]2CN1C(=O)[C@H](C(C)(C)C)NC(=O)O[C@@H]1C[C@H]1CCCCCc1c(nc3ccccc3c1OC)O2)C(=O)NS(=O)(=O)C1(C)CC1 [Example 119] | 9.92
C=C[C@@H]1C[C@]1(NC(=O)[C@@H]1C[C@@H]2CN1C(=O)[C@H](C(C)(C)C)NC(=O)O[C@@H]1C[C@H]1CCCCCc1c(nc3ccccc3c1OCCN1CC(O)C1)O2)C(=O)NS(=O)(=O)C1(C)CC1 [Example 174] | 10.24
C=C[C@@H]1C[C@]1(NC(=O)[C@@H]1C[C@@H]2CN1C(=O)[C@H](C(C)(C)C)NC(=O)O[C@@H]1CCC[C@H]1CCCCCc1c(nc3ccccc3c1OCCCN1CCCCC1)O2)C(=O)NS(=O)(=O)C1(COC)CC1 [Example 96] | 9.82

Which pKi value belongs to C=C[C@@H]1C[C@]1(NC(=O)[C@@H]1C[C@@H]2CN1C(=O)[C@H](C1CCCC1)NC(=O)O[C@@H]1CCC[C@H]1CCCCCc1c(nc3ccccc3c1O)O2)C(=O)NS(=O)(=O)C1CC1 [Example 34] ?
10.00

* * *

molecular target: HCV genotype 1b (BK) NS3 modified enzyme with a R155K mutation (Hepatitis C virus genotype 1b, UniProt P26663, R1181K); construct: HCV genotype 1b (BK) NS3 modified enzyme; test: HCV NS3 protease time-resolved fluorescence (TRF) assay, genotype 1b R155K; format: biochemical; conditions: Ki 1b R155K, first of two values printed in the cell (not explained)
Counter-ions that a name gives are not always drawn.
value-type: Ki
Answer format: number, then unit.

State the recorded Ki for every item in the following list.
1. C=C[C@@H]1C[C@]1(NC(=O)[C@@H]1C[C@@H]2CN1C(=O)[C@H](C(C)(C)C)NC(=O)O[C@@H]1C[C@H]1CCCCCc1c(nc3ccccc3c1OC1CC3CCC(C1)N3)O2)C(=O)NS(=O)(=O)C1(C)CC1 (single isomer, unassigned) [Example 279, trifluoroacetate]
2. C=C[C@@H]1C[C@]1(NC(=O)[C@@H]1C[C@@H]2CN1C(=O)[C@H](C1CCCCC1)NC(=O)O[C@@H]1C[C@H]1CCCCCc1c(nc3ccccc3c1CN1CCN(C)CC1)O2)C(=O)NS(=O)(=O)C1(C)CC1 [Example 266]
3. C=C[C@@H]1C[C@]1(NC(=O)[C@@H]1C[C@@H]2CN1C(=O)[C@H](C1CCCCC1)NC(=O)O[C@@H]1C[C@H]1CCCCCc1c(nc3ccccc3c1OCCCN1CCOCC1)O2)C(=O)NS(=O)(=O)C1(C)CC1 [Example 240, formate]

["0.012 nM", "0.02 nM", "0.019 nM"]

State the recorded Ki for every item in the following list.
1. C=C[C@@H]1C[C@]1(NC(=O)[C@@H]1C[C@@H]2CN1C(=O)[C@H](C1CCCCC1)NC(=O)O[C@@H]1C[C@H]1CCCCCc1c(nc3c(F)cccc3c1OC1CCN(C)CC1)O2)C(=O)NS(=O)(=O)C1(C)CC1 [Example 286]
2. C=C[C@@H]1C[C@]1(NC(=O)[C@@H]1C[C@@H]2CN1C(=O)[C@H](C1CCCCC1)NC(=O)O[C@@H]1C[C@H]1CCCCCc1c(nc3ccccc3c1OC1CCN(CC3CC3)CC1)O2)C(=O)NS(=O)(=O)C1(C)CC1 [Example 238, formate]
3. C=C[C@@H]1C[C@]1(NC(=O)[C@@H]1C[C@@H]2CN1C(=O)[C@H](C(C)(C)C)NC(=O)O[C@@H]1C[C@H]1CCCCCc1c(nc3ccccc3c1OC1C3COCC1CN(C(=O)OC(C)(C)C)C3)O2)C(=O)NS(=O)(=O)C1(C)CC1 (single isomer, unassigned) [Example 254]
4. C=C[C@@H]1C[C@]1(NC(=O)[C@@H]1C[C@@H]2CN1C(=O)[C@H](C(C)(C)C)NC(=O)O[C@@H]1C[C@H]1CCCCCc1c(nc3ccccc3c1OC1C3COCC1CN(CC)C3)O2)C(=O)NS(=O)(=O)C1(C)CC1 (some centres unmarked) [Example 260]
5. C=C[C@@H]1C[C@]1(NC(=O)[C@@H]1C[C@@H]2CN1C(=O)[C@H](C(C)(C)C)NC(=O)O[C@@H]1C[C@H]1CCCCCc1c(nc3ccccc3c1OC1C3COCC1CN(C(=O)OC(C)(C)C)C3)O2)C(=O)NS(=O)(=O)C1(C)CC1 (single isomer, unassigned) [Example 255]

["0.022 nM", "0.031 nM", "0.116 nM", "0.019 nM", "0.12 nM"]
